Target: human muscarinic M2 receptor (Homo sapiens, UniProt P08172)
Sequence (P08172 whole entry): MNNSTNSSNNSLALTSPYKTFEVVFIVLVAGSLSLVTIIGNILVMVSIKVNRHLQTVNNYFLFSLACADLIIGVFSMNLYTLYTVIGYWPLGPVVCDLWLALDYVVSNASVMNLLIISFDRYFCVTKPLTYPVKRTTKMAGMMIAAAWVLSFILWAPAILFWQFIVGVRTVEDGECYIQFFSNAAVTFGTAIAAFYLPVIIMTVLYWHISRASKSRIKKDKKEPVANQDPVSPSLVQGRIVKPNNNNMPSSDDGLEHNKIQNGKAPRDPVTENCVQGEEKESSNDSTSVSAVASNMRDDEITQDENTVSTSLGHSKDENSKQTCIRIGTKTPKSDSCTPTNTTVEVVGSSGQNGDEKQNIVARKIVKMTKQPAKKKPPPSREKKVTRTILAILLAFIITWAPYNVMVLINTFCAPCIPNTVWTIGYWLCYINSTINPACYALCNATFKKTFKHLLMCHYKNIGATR
Assay: Alphascreen Surefire phospho-ERK1/2 functional assay, M2
Type: cell-based
Settings: CHO cells stably expressing human M2; Emax compared with ACh
% Emax cf. ACh, M2 values by entry
recorded endpoint: % Emax cf. ACh, M2

[[record]]
compound = "CCOC(=O)N1CCC2(CC(N3CCC(C(CC)=NOC)CC3)C2)C1 (single isomer, unassigned) [2-2 Isomer 4]"
measured_target = "human muscarinic M2 receptor (Homo sapiens, UniProt P08172)"
recorded_endpoint = "% Emax cf. ACh, M2"
recorded_measurement = "69%"

[[record]]
compound = "CCOC(=O)N1CCCC(N2CCC(C(=NOC)C(C)C)CC2)CC1 (single isomer, unassigned) [1-5 Isomer 2 (racemic)]"
measured_target = "human muscarinic M2 receptor (Homo sapiens, UniProt P08172)"
recorded_endpoint = "% Emax cf. ACh, M2"
recorded_measurement = "22%"

[[record]]
compound = "CCOC(=O)N1CCCC(N2CCC(C(CC)=NOC(C)C)CC2)CC1 (single isomer, unassigned) [1-12 Isomer 1 (racemic)]"
measured_target = "human muscarinic M2 receptor (Homo sapiens, UniProt P08172)"
recorded_endpoint = "% Emax cf. ACh, M2"
recorded_measurement = "5%"

[[record]]
compound = "CCOC(=O)N1CCCC(N2CCC(C(CC)=NOC)CC2)CC1 (single isomer, unassigned) [1-2 Isomer 1 (racemic)]"
measured_target = "human muscarinic M2 receptor (Homo sapiens, UniProt P08172)"
recorded_endpoint = "% Emax cf. ACh, M2"
recorded_measurement = "2%"


----------
EC50 values by entry
Target: human muscarinic M3 receptor (Homo sapiens, UniProt P20309)
Construct: expressed in transfected cells
Sequence (P20309 whole entry): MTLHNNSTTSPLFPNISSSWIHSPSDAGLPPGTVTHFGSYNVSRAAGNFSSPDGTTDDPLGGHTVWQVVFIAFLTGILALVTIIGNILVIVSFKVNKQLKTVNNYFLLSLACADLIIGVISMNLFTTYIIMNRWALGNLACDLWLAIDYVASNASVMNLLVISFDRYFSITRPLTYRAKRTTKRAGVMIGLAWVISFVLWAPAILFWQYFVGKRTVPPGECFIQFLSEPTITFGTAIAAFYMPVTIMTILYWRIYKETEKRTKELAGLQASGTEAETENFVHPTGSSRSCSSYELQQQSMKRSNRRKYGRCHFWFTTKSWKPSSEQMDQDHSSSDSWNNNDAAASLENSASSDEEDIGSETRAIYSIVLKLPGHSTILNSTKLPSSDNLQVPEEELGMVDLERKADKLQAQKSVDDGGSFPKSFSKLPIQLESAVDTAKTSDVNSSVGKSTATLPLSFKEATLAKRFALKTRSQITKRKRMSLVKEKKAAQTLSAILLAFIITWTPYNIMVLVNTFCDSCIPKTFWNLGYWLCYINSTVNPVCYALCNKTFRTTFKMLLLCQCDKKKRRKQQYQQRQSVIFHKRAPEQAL
Assay: Alphascreen Surefire phospho-ERK1/2 functional assay, M3
Assay type: cell-based
Settings: CHO cells stably expressing human M3; agonist 5 min, 37° C.; read-out: pEC50 M3 (converted)
Procedure: ERK1/2 phosphorylation is a downstream consequence of both Gq/11 and Gi/o protein coupled receptor activation, making it highly suitable for the assessment of M1, M3 (Gq/11 coupled) and M2, M4 receptors (Gi/o coupled), rather than using different assay formats for different receptor subtypes. […] Plates were incubated for 2 h with gentle agitation in the dark and then read on a PHERAstar plate reader. pEC50 and Emax figures were calculated from the resulting data for each receptor subtype.
recorded endpoint: EC50

[[record]]
molecule = "CCCC(=NOC)C1CCN(C2CC3(CCN(C(=O)OCC)C3)C2)CC1 (mixture of isomers) [2-3 Mixture of two isomers]"
recorded_endpoint = "EC50"
recorded_measurement = "> 20 µM"

[[record]]
molecule = "CCCON=C(CC)C1CCN(C2CCCN(C(=O)OCC)CC2)CC1 (single isomer, unassigned) [1-11 Isomer 2 (racemic)]"
recorded_endpoint = "EC50"
recorded_measurement = "> 20 µM"

[[record]]
molecule = "CCOC(=O)N1CCCC(N2CCC(C(=NOC)C(C)C)CC2)CC1 (single isomer, unassigned) [1-4 Isomer 2 (racemic)]"
recorded_endpoint = "EC50"
recorded_measurement = "> 15.8 µM"

[[record]]
molecule = "CCCC(=NOC)C1CCN([C@H]2CCCN(C(=O)OCC)CC2)CC1 (single isomer, unassigned) [(S)-1-3 Isomer 2]"
recorded_endpoint = "EC50"
recorded_measurement = "> 20 µM"

[[record]]
molecule = "CCCC(=NOC)C1CCN(C2CC3(CCN(C(=O)OCC)C3)C2)CC1 (single isomer, unassigned) [2-3 Isomer 4]"
recorded_endpoint = "EC50"
recorded_measurement = "> 20 µM"

[[record]]
molecule = "CCOC(=O)N1CCC[C@H](N2CCC(C(C)=NOC)CC2)CC1 (single isomer, unassigned) [(S)-1-1 Isomer 2]"
recorded_endpoint = "EC50"
recorded_measurement = "> 20 µM"


----------
Target: UniProtKB P11229
Assay: Alphascreen Surefire phospho-ERK1/2 functional assay, M1
Assay type: cell-based
Settings: CHO, read-out: % Emax cf. ACh, M1, CHO cells stably expressing human M1; Emax compared with ACh
Please enter Fulfilled where Emax is greater than or equal to 60%, and Not fulfilled where it is lower.

[[record]]
compound = "CCOC(=O)N1CCCC(N2CCC(C(C)=NOC(C)C)CC2)CC1 (single isomer, unassigned) [1-9 Isomer 1 (racemic)]"
group_label = "Not fulfilled"

[[record]]
compound = "CCOC(=O)N1CCCC(N2CCC(C(=NOC)C(C)C)CC2)CC1 (single isomer, unassigned) [1-4 Isomer 1 (racemic)]"
group_label = "Fulfilled"

[[record]]
compound = "CCOC(=O)N1CCC[C@H](N2CCC(C(CC)=NOC)CC2)CC1 (single isomer, unassigned) [(S)-1-2 Isomer 1]"
group_label = "Not fulfilled"

[[record]]
compound = "CCON=C(C)C1CCN(C2CCCN(C(=O)OCC)CC2)CC1 (single isomer, unassigned) [1-7 Isomer 1 (racemic)]"
group_label = "Not fulfilled"

[[record]]
compound = "CCOC(=O)N1CCCC(N2CCC(C(C)=NOC)CC2)CC1 (single isomer, unassigned) [1-1 Isomer 2 (racemic)]"
group_label = "Not fulfilled"

[[record]]
compound = "CCOC(=O)N1CCCC(N2CCC(C(=NOC)NCC(C)C)CC2)CC1 (racemic) [3-1 Mixture of isomers]"
group_label = "Fulfilled"

[[record]]
compound = "CCCON=C(C)C1CCN(C2CCCN(C(=O)OCC)CC2)CC1 (single isomer, unassigned) [1-8 Isomer 1 (racemic)]"
group_label = "Fulfilled"


----------
Target: human muscarinic M1 receptor (Homo sapiens, UniProt P11229)
Sequence (P11229 whole entry): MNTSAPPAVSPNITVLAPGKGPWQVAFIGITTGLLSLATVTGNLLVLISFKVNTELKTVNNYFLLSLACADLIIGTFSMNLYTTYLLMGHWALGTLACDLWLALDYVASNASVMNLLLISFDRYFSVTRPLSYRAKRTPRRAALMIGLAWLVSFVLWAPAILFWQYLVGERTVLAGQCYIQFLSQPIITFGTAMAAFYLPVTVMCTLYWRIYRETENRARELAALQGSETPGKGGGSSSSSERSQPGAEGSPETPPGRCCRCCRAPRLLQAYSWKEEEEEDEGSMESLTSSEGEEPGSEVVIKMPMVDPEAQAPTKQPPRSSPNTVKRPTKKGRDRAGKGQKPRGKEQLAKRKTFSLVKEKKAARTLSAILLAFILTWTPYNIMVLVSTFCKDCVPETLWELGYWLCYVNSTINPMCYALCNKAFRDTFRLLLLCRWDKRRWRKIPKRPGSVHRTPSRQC
Test: Alphascreen Surefire phospho-ERK1/2 functional assay, M1
Format: cell-based
Conditions: CHO cells stably expressing human M1; agonist 5 min, 37° C.; read-out: pEC50 M1 (converted)
EC50 values by entry
recorded endpoint: EC50

[[record]]
compound = "CCOC(=O)N1CCC2(CC(N3CCC(C(C)=NOC)CC3)C2)C1 (single isomer, unassigned) [2-1 Mixture of isomers 2]"
measured_target = "human muscarinic M1 receptor (Homo sapiens, UniProt P11229)"
recorded_endpoint = "EC50"
recorded_measurement = "200 nM"

[[record]]
compound = "CCOC(=O)N1CCCC(N2CCC(C(C)=NOC(C)C)CC2)CC1 (single isomer, unassigned) [1-9 Isomer 1 (racemic)]"
measured_target = "human muscarinic M1 receptor (Homo sapiens, UniProt P11229)"
recorded_endpoint = "EC50"
recorded_measurement = "631 nM"

[[record]]
compound = "CCOC(=O)N1CCCC(N2CCC(C(CC)=NOC)CC2)CC1 (single isomer, unassigned) [1-2 Isomer 2 (racemic)]"
measured_target = "human muscarinic M1 receptor (Homo sapiens, UniProt P11229)"
recorded_endpoint = "EC50"
recorded_measurement = "398 nM"

[[record]]
compound = "CCOC(=O)N1CCC2(CC(N3CCC(C(CC)=NOC)CC3)C2)C1 (single isomer, unassigned) [2-2 Isomer 4]"
measured_target = "human muscarinic M1 receptor (Homo sapiens, UniProt P11229)"
recorded_endpoint = "EC50"
recorded_measurement = "200 nM"

[[record]]
compound = "CCCC(=NOC)C1CCN(C2CCCN(C(=O)OCC)CC2)CC1 (single isomer, unassigned) [1-3 Isomer 2 (racemic)]"
measured_target = "human muscarinic M1 receptor (Homo sapiens, UniProt P11229)"
recorded_endpoint = "EC50"
recorded_measurement = "63.1 nM"

[[record]]
compound = "CCCC(=NOC)C1CCN(C2CC3(CCN(C(=O)OCC)C3)C2)CC1 (mixture of isomers) [2-3 Mixture of two isomers]"
measured_target = "human muscarinic M1 receptor (Homo sapiens, UniProt P11229)"
recorded_endpoint = "EC50"
recorded_measurement = "> 20000 nM"

[[record]]
compound = "CCCC(=NOC)C1CCN(C2CC3(CCN(C(=O)OCC)C3)C2)CC1 (single isomer, unassigned) [2-3 Isomer 4]"
measured_target = "human muscarinic M1 receptor (Homo sapiens, UniProt P11229)"
recorded_endpoint = "EC50"
recorded_measurement = "158 nM"

[[record]]
compound = "CCOC(=O)N1CCCC(N2CCC(C(CC)=NOC)CC2)CC1 (single isomer, unassigned) [1-2 Isomer 1 (racemic)]"
measured_target = "human muscarinic M1 receptor (Homo sapiens, UniProt P11229)"
recorded_endpoint = "EC50"
recorded_measurement = "501 nM"

[[record]]
compound = "CCOC(=O)N1CCC2(CC(N3CCC(C(CC)=NOC)CC3)C2)C1 (single isomer, unassigned) [2-2 Isomer 3]"
measured_target = "human muscarinic M1 receptor (Homo sapiens, UniProt P11229)"
recorded_endpoint = "EC50"
recorded_measurement = "> 20000 nM"

[[record]]
compound = "CCOC(=O)N1CCCC(N2CCC(C(CC)=NOC(C)C)CC2)CC1 (single isomer, unassigned) [1-12 Isomer 1 (racemic)]"
measured_target = "human muscarinic M1 receptor (Homo sapiens, UniProt P11229)"
recorded_endpoint = "EC50"
recorded_measurement = "100 nM"

[[record]]
compound = "CCOC(=O)N1CCC[C@H](N2CCC(C(C)=NOC)CC2)CC1 (single isomer, unassigned) [(S)-1-1 Isomer 2]"
measured_target = "human muscarinic M1 receptor (Homo sapiens, UniProt P11229)"
recorded_endpoint = "EC50"
recorded_measurement = "501 nM"

[[record]]
compound = "CCOC(=O)N1CCCC(N2CCC(C(=NOC)C(C)C)CC2)CC1 (single isomer, unassigned) [1-4 Isomer 2 (racemic)]"
measured_target = "human muscarinic M1 receptor (Homo sapiens, UniProt P11229)"
recorded_endpoint = "EC50"
recorded_measurement = "316 nM"

[[record]]
compound = "CCCON=C(C)C1CCN(C2CCCN(C(=O)OCC)CC2)CC1 (single isomer, unassigned) [1-8 Isomer 1 (racemic)]"
measured_target = "human muscarinic M1 receptor (Homo sapiens, UniProt P11229)"
recorded_endpoint = "EC50"
recorded_measurement = "794 nM"


Data provenance is patent US11208396B2.
